RUN_PARAMETERS: in ethanol, 283.15 K
RECORDED_ENDPOINT: solubility (mole fraction)
Give only the figure.

I have this compound here, N=C(N)NC(N)=S , and I need its recorded solubility (mole fraction).
0.0045

----------
RUN_PARAMETERS: in ethanol, 323.15 K
RECORDED_ENDPOINT: solubility (mole fraction)
Answer using only a numeral; do not append any unit.

Any idea what its solubility (mole fraction) is? The compound is N=C(N)NC(N)=S
0.014

----------
RUN_PARAMETERS: in ethyl acetate, 303.15 K
RECORDED_ENDPOINT: solubility (mole fraction)
Returns: the value as a bare number; no unit string appended.

# lookup: solubility (mole fraction) of N=C(N)NC(N)=S
0.00471

----------
RUN_PARAMETERS: in methanol, 303.15 K
RECORDED_ENDPOINT: solubility (mole fraction)

Returns the measured solubility (mole fraction) for the input compound. Input: N=C(N)NC(N)=S
0.0105

----------
RUN_PARAMETERS: in cyclohexane, 323.15 K
RECORDED_ENDPOINT: solubility (mole fraction)
I only need the number, thanks.

Given the molecule N=C(N)NC(N)=S , what is its reported solubility (mole fraction)?
0.00014

----------
RUN_PARAMETERS: in n-propanol, 303.15 K
RECORDED_ENDPOINT: solubility (mole fraction)
Write no unit; give the number alone.

May I ask what solubility (mole fraction) has been recorded for N=C(N)NC(N)=S ?
0.00564

----------
RUN_PARAMETERS: in cyclohexane, 293.15 K
RECORDED_ENDPOINT: solubility (mole fraction)
In your answer, state the number alone without any accompanying words.

// query solubility (mole fraction) value for entry N=C(N)NC(N)=S
5e-05

----------
RUN_PARAMETERS: in NMP, 288.15 K
RECORDED_ENDPOINT: solubility (mole fraction)
A bare number is all that is needed in reply.

Recorded solubility (mole fraction) for N=C(N)NC(N)=S , please?
0.0166

----------
RUN_PARAMETERS: in n-propanol, 318.15 K
RECORDED_ENDPOINT: solubility (mole fraction)
When you answer, write just the number.

For N=C(N)NC(N)=S , what is its reported solubility (mole fraction)?
0.00901

----------
RUN_PARAMETERS: in ethyl acetate, 323.15 K
RECORDED_ENDPOINT: solubility (mole fraction)
Quick one: just the number, no unit, thanks!

Need solubility (mole fraction) of N=C(N)NC(N)=S , thanks.
0.0094

----------
RUN_PARAMETERS: in isopropanol, 293.15 K
RECORDED_ENDPOINT: solubility (mole fraction)
In your answer, state the number alone without any accompanying words.

Any idea what solubility (mole fraction) was measured for N=C(N)NC(N)=S ?
0.00223

----------
RUN_PARAMETERS: in n-butanol, 283.15 K
RECORDED_ENDPOINT: solubility (mole fraction)
Give only the figure.

Fill blank: measured solubility (mole fraction) of the compound N=C(N)NC(N)=S is ____.
0.000477

----------
RUN_PARAMETERS: in n-butanol, 303.15 K
RECORDED_ENDPOINT: solubility (mole fraction)
Lab note: jot the number down without any unit.

Can you look up the measured solubility (mole fraction) of N=C(N)NC(N)=S for me?
0.00226

----------
RUN_PARAMETERS: in NMP, 303.15 K
RECORDED_ENDPOINT: solubility (mole fraction)
# output: bare number, no unit

Reported solubility (mole fraction) for N=C(N)NC(N)=S : what is it?
0.0281
